Give measured LogP for each item. Keep answers brief.
# testDetails: LogP by HPLC on reversed phase columns (EEC directive 79/831 Annex V.A8)
# Assay type: physicochemical
# conditionDetails: [b] LC-UV, neutral range, 0.001 molar ammonium acetate solution in water and acetonitrile as eluent
# Method: [table] If more than one LogP value is available within the same method, all the values are given and separated by “+”. […] Lambda-max-values were determined using UV-spectra from 200 nm to 400 nm and the peak values of the chromatographic signals. Measurement of LogP values was performed as outlined above.
Give bare numbers.

Use the examples below as a reference point.
O=C(c1ccc(F)cc1F)C1(Oc2cccc(Br)c2)CC1 [IV-7]    4.36
O=C(c1ccc(F)cc1F)C1(Oc2ccc(Cl)cc2F)CC1 [IV-3]    4.24
O=C(c1ccc(F)cc1F)C1(Oc2ccccc2I)CC1 [IV-8]    4.40

Here is another compound to look at.
Inquiry: Name the recorded LogP for Fc1ccc(C2(C3(Oc4ccc(I)cc4)CC3)CO2)c(F)c1 (centres unmarked) [Example V-10] .
Reply text: 4.95

====

Give measured LogP for each item. Keep answers brief.
# testDetails: LogP by HPLC on reversed phase columns (EEC directive 79/831 Annex V.A8)
# Format: physicochemical
# conditionDetails: [a] LC-UV, acidic range, 0.1% formic acid in water and acetonitrile as eluent

Use the examples below as a reference point.
O=C(c1ccc(F)cc1F)C1(Oc2c(F)cccc2F)CC1 [IV-17]    3.87^[a]
O=C(c1ccc(F)cc1F)C1(Oc2ccc(SC(F)(F)F)cc2)CC1 [IV-16]    4.86
OC(Cn1cncn1)(c1ccc(Cl)cc1F)C1(Oc2ccc(F)cc2F)CC1 (racemic) [Example I-16]    3.44^[a]

Working through the 5 compounds below one at a time, give LogP for each.
1. Fc1ccc(C2(C3(Oc4c(Cl)cccc4Cl)CC3)CO2)c(F)c1 (stereo not drawn) [Example V-19]
2. O=C(c1ccc(F)cc1F)C1(Oc2cccc(Cl)c2)CC1 [IV-24]
3. O=C(c1ccc(F)cc1F)C1(Oc2ccc(I)cc2)CC1 [IV-10]
4. CC(C)COC(Cn1cncn1)(c1ccc(F)cc1F)C1(Oc2ccc(Cl)cc2)CC1 (racemic) [Example I-37]
5. O=C(c1ccc(F)cc1F)C1(Oc2ccc(Cl)cc2)CC1 [IV-2]

Reply text:
4.80^[a]
4.34^[a]
4.54
5.11^[a]
4.22^[a]

Inquiry: Name the recorded LogP for COC(Cn1cncn1)(c1ccc(F)cc1F)C1(Oc2c(F)cccc2Br)CC1 (racemic) [Example I-25] .
Reply text: 3.83^[a]

====

Give measured LogP for each item. Keep answers brief.
# testDetails: LogP by HPLC on reversed phase columns (EEC directive 79/831 Annex V.A8)
# Format: physicochemical
# conditionDetails: [a] LC-UV, acidic range, 0.1% formic acid in water and acetonitrile as eluent
# Method: [table] If more than one LogP value is available within the same method, all the values are given and separated by “+”. […] Lambda-max-values were determined using UV-spectra from 200 nm to 400 nm and the peak values of the chromatographic signals. Measurement of LogP values was performed as outlined above.
Marks after values point to notes of the source that are not given here.

O=C(c1ccc(F)cc1F)C1(Oc2ccc(Cl)cc2F)CC1    4.23
Fc1ccc(C2(C3(Oc4ccc(OC(F)F)cc4)CC3)CO2)c(F)c1 (racemic)    4.24^[a]
CCOC(Cn1cncn1)(c1ccc(F)cc1F)C1(Oc2ccc(Cl)cc2)CC1 (racemic)    4.32^[a]
O=C(c1ccc(F)cc1F)C1(Oc2ccccc2I)CC1    4.35
Fc1ccc(C2(C3(Oc4ccc(Br)c(F)c4)CC3)CO2)c(F)c1 (racemic)    4.89^[a]
OC(Cn1cncn1)(c1ccc(F)cc1F)C1(Oc2c(F)cccc2F)CC1 (racemic)    3.02^[a]

Working through the 6 compounds below one at a time, give LogP for each.
1. O=C(c1ccc(F)cc1F)C1(Oc2ccc(F)cc2Cl)CC1
2. COC(Cn1cncn1)(c1ccc(Cl)cc1F)C1(Oc2ccc(Cl)cc2)CC1 (racemic)
3. OC(Cn1cncn1)(c1ccc(F)cc1F)C1(Oc2c(F)cccc2Br)CC1 (racemic)
4. OC(Cn1cncn1)(c1ccc(F)cc1F)C1(Oc2ccc(Cl)cc2)CC1 (single isomer, unassigned)
5. Fc1ccc(OC2(C3(c4ccc(Cl)cc4F)CO3)CC2)c(F)c1 (centres unmarked)
6. Fc1ccc(C2(C3(Oc4ccc(I)cc4)CC3)CO2)c(F)c1 (centres unmarked)

Reply text:
["4.21^[a]; 4.21^[b]", "4.29^[a]", "3.51^[a]", "3.48^[a]", "4.56^[a]", 4.87]

Working through the 4 compounds below one at a time, give LogP for each.
1. COC(Cn1cncn1)(c1ccc(F)cc1F)C1(Oc2c(F)cccc2F)CC1 (racemic)
2. O=C(c1ccc(F)cc1F)C1(Oc2ccc(Cl)c(F)c2)CC1
3. Cc1cc(I)ccc1OC1(C(=O)c2ccc(F)cc2F)CC1
4. O=C(c1ccc(F)cc1F)C1(Oc2ccc(Br)cc2F)CC1

Reply text:
1. 3.48^[a]
2. 4.41^[a]
3. 5.06
4. 4.33

Working through the 2 compounds below one at a time, give LogP for each.
1. Fc1ccc(C2(C3(Oc4ccc(F)c(F)c4)CC3)CO2)c(F)c1 (racemic)
2. O=C(c1ccc(F)cc1F)C1(Oc2cccc(I)c2)CC1

Reply text:
1. 4.36^[a]
2. 4.50

====

Give measured LogP for each item. Keep answers brief.
# testDetails: LogP by HPLC on reversed phase columns (EEC directive 79/831 Annex V.A8)
# Type: physicochemical
# conditionDetails: [a] LC-UV, acidic range, 0.1% formic acid in water and acetonitrile as eluent
Marks after values point to notes of the source that are not given here.

Use the examples below as a reference point.
O=C(c1ccc(F)cc1F)C1(Oc2ccccc2F)CC1    3.73^[a]
Cc1cc(Br)ccc1OC1(C2(c3ccc(F)cc3F)CO2)CC1 (stereo not drawn)    5.25^[a]; 5.25^[b]
OC(Cn1cncn1)(c1ccc(F)cc1F)C1(Oc2ccc(Cl)c(F)c2)CC1 (racemic)    3.63^[a]

Working through the 3 compounds below one at a time, give LogP for each.
1. CC(=O)OC(Cn1cncn1)(c1ccc(F)cc1F)C1(Oc2ccc(Cl)cc2)CC1 (racemic)
2. Fc1ccc(C2(C3(Oc4c(F)cccc4F)CC3)CO2)c(F)c1 (stereo not drawn)
3. O=C(c1ccc(F)cc1F)C1(Oc2c(F)cccc2Br)CC1

Reply text:
1. 3.47^[a];
2. 4.11^[a]
3. 4.34^[a]

Working through the 3 compounds below one at a time, give LogP for each.
1. C#CCOC(Cn1cncn1)(c1ccc(F)cc1F)C1(Oc2ccc(Cl)cc2)CC1 (racemic)
2. OC(Cn1cncn1)(c1ccc(F)cc1F)C1(Oc2ccccc2Br)CC1 (racemic)
3. Fc1ccc(C2(C3(Oc4ccc(SC(F)(F)F)cc4)CC3)CO2)c(F)c1 (stereo not drawn)

Reply text:
["3.90^[a]", "3.44^[a];", 5.23]

====

Give measured LogP for each item. Keep answers brief.
# testDetails: LogP by HPLC on reversed phase columns (EEC directive 79/831 Annex V.A8)
# Type: physicochemical
# conditionDetails: [a] LC-UV, acidic range, 0.1% formic acid in water and acetonitrile as eluent
# Protocol: [table] If more than one LogP value is available within the same method, all the values are given and separated by “+”. […] Lambda-max-values were determined using UV-spectra from 200 nm to 400 nm and the peak values of the chromatographic signals. Measurement of LogP values was performed as outlined above.

Use the examples below as a reference point.
COC(Cn1cncn1)(c1ccc(F)cc1F)C1(Oc2ccc(Cl)cc2)CC1 (racemic)    3.81^[a]
OC(Cn1cncn1)(c1ccc(F)cc1F)C1(Oc2ccccc2)CC1 (racemic)    3.67^[a];
Fc1ccc(C2(C3(Oc4ccc(Br)cc4)CC3)CO2)c(F)c1 (centres unmarked)    4.66
N#Cc1cc(I)ccc1OC1(C(=O)c2ccc(F)cc2F)CC1    3.90

Inquiry: Name the recorded LogP for `O=C(c1ccc(F)cc1F)C1(Oc2ccc(OC(F)F)cc2)CC1` .
Reply text: 3.94^[a]

====

Give measured LogP for each item. Keep answers brief.
# testDetails: LogP by HPLC on reversed phase columns (EEC directive 79/831 Annex V.A8)
# Type: physicochemical
# conditionDetails: [b] LC-UV, neutral range, 0.001 molar ammonium acetate solution in water and acetonitrile as eluent
Numbers only.

Cc1cc(I)ccc1OC1(C(=O)c2ccc(F)cc2F)CC1 [IV-12]    5.08

Here is another compound to look at.
Inquiry: Name the recorded LogP for O=C(c1ccc(F)cc1F)C1(Oc2ccccc2Br)CC1 [IV-6] .
Reply text: 4.19

====

# testDetails: LogP by HPLC on reversed phase columns (EEC directive 79/831 Annex V.A8)
# Assay type: physicochemical
# conditionDetails: reversed phase HPLC column, [a] LC-UV, acidic range, 0.1% formic acid in water and acetonitrile as eluent
measurementType: chromatographic logP

Use the examples below as a reference point.
O=C(c1ccc(F)cc1F)C1(Oc2ccc(Br)cc2)CC1    4.32
OC(Cn1cncn1)(c1ccc(F)cc1F)C1(Oc2ccc(Cl)cc2)CC1 (stereo not drawn)    3.48

Here is another compound to look at.
Inquiry: Name the recorded chromatographic logP for Fc1ccc(C2(C3(Oc4ccc(Cl)cc4)CC3)CO2)c(F)c1 (stereo not drawn) .
Reply text: 4.57
